The reported measurements were obtained from the supplement of paper PMC10567573.

B1: KRT33B (parent)
chain: PAVDLNQVLNETRNQYEALVETNR

variants of: B1; assay: protein stability index of a GFP-peptide fusion (GPS, HEK-293T) (PSI 1-6); higher = more stable; conditions: c terminus: a fixed tail appended;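 note: lentivirally expressed fusions sorted by FACS into six bins by GFP to DsRed ratio, PSI derived from sequencing read proportions per bin multiplied by bin number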
Exercise: for every item that follows, state its recorded protein stability index.
Answers are plain numbers.

Examples with answers:
L19Q; 5.1
E11W; 3.38
A2L; 3.25
V3F; 4.36
A18S; 3.71
N6G; 4.3
E11A; 3.63
T12W; 3.09

Batch: protein stability index for all items listed.
1. E21W
2. E21N
3. N10C

2.89
4.14
3.59
